Target: wild-type nAChR α7 receptors (Homo sapiens, UniProt P36544)
Sequence (P36544 23-502): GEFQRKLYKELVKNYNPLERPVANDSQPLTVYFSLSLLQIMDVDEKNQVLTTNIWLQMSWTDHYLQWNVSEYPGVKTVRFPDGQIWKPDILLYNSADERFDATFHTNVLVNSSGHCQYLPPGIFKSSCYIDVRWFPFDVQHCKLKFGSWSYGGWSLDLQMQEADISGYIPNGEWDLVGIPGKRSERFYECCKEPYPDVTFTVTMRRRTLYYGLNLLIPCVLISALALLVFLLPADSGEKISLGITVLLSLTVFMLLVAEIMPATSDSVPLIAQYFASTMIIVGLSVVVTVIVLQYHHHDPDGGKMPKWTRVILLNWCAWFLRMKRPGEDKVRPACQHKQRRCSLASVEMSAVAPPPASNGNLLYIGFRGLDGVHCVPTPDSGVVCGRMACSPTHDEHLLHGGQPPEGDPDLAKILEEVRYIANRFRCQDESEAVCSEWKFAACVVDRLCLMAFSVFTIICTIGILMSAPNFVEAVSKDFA
Test: Positive modulation of nAChR α7 currents in Xenopus laevis oocytes, two-electrode voltage clamp
Conditions: nAChR α7 expressed in Xenopus laevis oocytes; clamped at −60 mV; 100 μM acetylcholine; test compound 0.01-31.6 μM; read-out: calculated EC50 (positive modulation of acetylcholine-induced current)
Description: In this example the positive modulation of wild-type nAChR α7 receptors by Compounds 4 and 5, representative of the invention, was determined using nAChR α7 receptors heterologously expressed in Xenopus laevis oocytes. The electrical current through the nAChR α7 channel was measured using conventional two-electrode voltage clamp and nAChR α7 currents were activated by applying pulses of agonist-containing solution onto the nAChR α7 expressing oocyte. […]
endpoint: EC50 (nM)

1: COc1ccc(-c2cc(C(=O)Nc3cccc(F)n3)c3ccccc3n2)cc1
2: COc1ccc(-c2cc(C(=O)Nc3cccc(F)n3)c3ccccc3n2)cc1OC
QUERY: Would you let me know which has the greater EC50 value, 1 or 2 ? The response must carry the label of the picked entry.
RESULT: 1
(1: 3700 nM, 2: 1200 nM)

Numbers sourced from patent US20110207773A1.
